Assay: Induction of anti-CD3/CD28 antibodies-stimulated human T cell activation at 0.3 uM assessed fold increase in IL-2 secretion measured by ELISA assay
Format: functional, T cell line
READOUT: fold change (FC)

compound=C[C@H](Sc1nncn1C)c1cccc(NC(=O)c2cc(C(=O)N3CC(O)C3)ccn2)c1 experimental_result=<=1
compound=Cn1cnnc1CC1(c2cccc(NC(=O)c3cc(CN4CCCCC4)nc(C4CC4)n3)c2)COC1 experimental_result=>=7.5
compound="CO[C@@H]1CCN(Cc2cc3c(c(C(F)(F)F)c2)CN(c2cccc(C4(Cc5nncn5C)COC4)c2)C3=O)C[C@@H]1F (relative stereo)" experimental_result=>=7.5

* * *

Test: Induction of anti-CD3/CD28 antibodies-stimulated human T cell activation at 1 uM assessed fold increase in IL-2 secretion measured by ELISA assay
Type: functional, T cell line
READOUT: fold change (FC)

Before answering, review these 9 worked examples.
compound=CCN1CCN(Cc2cc3c(c(C(F)(F)F)c2)CN(c2cccc(C4(Cc5nncn5C)COC4)c2)C3=O)CC1 experimental_result=>=7.5
compound=Cn1cnnc1CC1(c2cccc(N3Cc4c(cc(CN5CCc6ccccc6C5)cc4C(F)(F)F)C3=O)c2)COC1 experimental_result=>=7.5
compound=Cc1nc2c(o1)CCN(Cc1cc3c(c(C(F)(F)F)c1)CN(c1cccc(C4(Cc5nncn5C)COC4)c1)C3=O)C2 experimental_result=>=7.5
compound=Cn1cnnc1CC1(c2cccc(N3Cc4c(cc(CN5CCC[C@@H](F)C5)cc4C(F)(F)F)C3=O)c2)COC1 experimental_result=>=7.5
compound=C[C@H](Sc1nncn1C)c1cccc(NC(=O)c2cccc(C(C)(F)F)n2)c1 experimental_result=<=1
compound=Cn1cc2c(n1)CCCN2Cc1cc2c(c(C(F)(F)F)c1)CN(c1cccc(C3(Cc4nncn4C)COC3)c1)C2=O experimental_result=>=7.5
compound=CC[C@@H](c1cc2c(c(C(F)(F)F)c1)CN(c1cccc(C3(Cc4nncn4C)COC3)c1)C2=O)N1CC[C@H](F)C1 experimental_result=>=7.5
compound="Cn1cnnc1C(F)[C@](C)(F)c1cccc(N2Cc3c(cccc3C(F)(F)F)C2=O)c1 (single isomer, unassigned)" experimental_result=<=1
compound=C[C@H](Sc1nncn1C)c1cccc(NC(=O)c2cc(C3(O)COC3)cc(C(F)(F)F)n2)c1 experimental_result=<=1

From here, focus on the item given below.
Look at this compound and give its reported fold change (FC). `Cn1cnnc1CC1(c2cccc(N3Cc4c(cc(CN5CCC(C)(F)CC5)cc4C(F)(F)F)C3=O)c2)COC1`
>=7.5

* * *

Experiment: Induction of anti-CD3 antibodies-stimulated human T cell activation at 1 uM assessed fold increase in IL-2 secretion measured by ELISA assay; further: reference of the scale not given here
Assay type: functional, T cell line
READOUT: fold change (FC)

Before answering, review these 5 worked examples.
molecule=C[C@H](Cc1nncn1C)c1ccnc(N2Cc3c(cccc3C(F)(F)F)C2=O)c1 experimental_result=<=0.05
molecule=C[C@H](Cc1nncn1C)c1cccc(NC(=O)c2cccc(C(F)(F)F)n2)c1 experimental_result=>=0.201
molecule="Cn1cnnc1CC1(c2cccc(N3Cc4c(cc(CN5CC6CC6(C)C5)cc4C(F)(F)F)C3=O)c2)COC1 (stereo unspecified)" experimental_result=>=0.201
molecule=Cn1cnnc1CC1(c2cccc(N3Cc4c(cc(CN5CCC(F)(F)CC5)cc4C(F)(F)F)C3=O)c2)COC1 experimental_result=>=0.201
molecule=C[C@H](Cc1nncn1C)c1cccc(N2Cc3c(cc(C4CC4)cc3C(F)(F)F)C2=O)c1 experimental_result=>=0.201

Look at this molecule and give its reported fold change (FC). `C[C@H](Cc1nncn1C)c1cccc(NC(=O)c2ccc(CO)c(C3CC3)n2)c1`
>=0.201

Look at this molecule and give its reported fold change (FC). Cn1cnnc1[C@@H](F)[C@](C)(F)c1cccc(N2Cc3c(cccc3C(F)(F)F)C2=O)c1 (single isomer, unassigned)
<=0.05

Look at this molecule and give its reported fold change (FC). `C[C@@H](c1cccc(N2Cc3c(cccc3C(F)(F)F)C2=O)c1)C(F)(F)c1nncn1C`
<=0.05

Look at this molecule and give its reported fold change (FC). `Cn1cnnc1CC1(c2cccc(N3Cc4c(cc(N5CCN6CCC[C@H]6C5)cc4C(F)(F)F)C3=O)c2)COC1`
>=0.201

Look at this molecule and give its reported fold change (FC). `COc1ccc2c(c1)CN(Cc1cc3c(c(C(F)(F)F)c1)CN(c1cccc(C4(Cc5nncn5C)COC4)c1)C3=O)C2`
>=0.201

Look at this molecule and give its reported fold change (FC). `COc1nc(C(=O)Nc2cccc([C@H](C)Sc3nncn3C)c2)cc2ccccc12`
<=0.05

* * *

Property: fold change (FC); scope: individual compounds
Experiment: Induction of anti-CD3 antibodies-stimulated human T cell activation at 1 uM assessed fold increase in IL-2 secretion measured by ELISA assay; further: reference of the scale not given here
Format: functional, T cell line
Please give the numeric answer without any surrounding text.

Look at this compound and give its reported fold change (FC). `C[C@H](Cc1nncn1C)c1cccc(N2Cc3c(cc(C(=O)N4CC(O)C4)cc3C3CC3)C2=O)c1`
0.151

Look at this compound and give its reported fold change (FC). `C[C@H](Cc1nncn1C)c1cccc(N2Cc3c(cc(C4CC4)nc3C3CC3)C2=O)c1`
0.051

* * *

Target: E3 ubiquitin-protein ligase CBL-B (Homo sapiens, UniProt Q13191)
Sequence (Q13191 whole entry, the tested form may be a part): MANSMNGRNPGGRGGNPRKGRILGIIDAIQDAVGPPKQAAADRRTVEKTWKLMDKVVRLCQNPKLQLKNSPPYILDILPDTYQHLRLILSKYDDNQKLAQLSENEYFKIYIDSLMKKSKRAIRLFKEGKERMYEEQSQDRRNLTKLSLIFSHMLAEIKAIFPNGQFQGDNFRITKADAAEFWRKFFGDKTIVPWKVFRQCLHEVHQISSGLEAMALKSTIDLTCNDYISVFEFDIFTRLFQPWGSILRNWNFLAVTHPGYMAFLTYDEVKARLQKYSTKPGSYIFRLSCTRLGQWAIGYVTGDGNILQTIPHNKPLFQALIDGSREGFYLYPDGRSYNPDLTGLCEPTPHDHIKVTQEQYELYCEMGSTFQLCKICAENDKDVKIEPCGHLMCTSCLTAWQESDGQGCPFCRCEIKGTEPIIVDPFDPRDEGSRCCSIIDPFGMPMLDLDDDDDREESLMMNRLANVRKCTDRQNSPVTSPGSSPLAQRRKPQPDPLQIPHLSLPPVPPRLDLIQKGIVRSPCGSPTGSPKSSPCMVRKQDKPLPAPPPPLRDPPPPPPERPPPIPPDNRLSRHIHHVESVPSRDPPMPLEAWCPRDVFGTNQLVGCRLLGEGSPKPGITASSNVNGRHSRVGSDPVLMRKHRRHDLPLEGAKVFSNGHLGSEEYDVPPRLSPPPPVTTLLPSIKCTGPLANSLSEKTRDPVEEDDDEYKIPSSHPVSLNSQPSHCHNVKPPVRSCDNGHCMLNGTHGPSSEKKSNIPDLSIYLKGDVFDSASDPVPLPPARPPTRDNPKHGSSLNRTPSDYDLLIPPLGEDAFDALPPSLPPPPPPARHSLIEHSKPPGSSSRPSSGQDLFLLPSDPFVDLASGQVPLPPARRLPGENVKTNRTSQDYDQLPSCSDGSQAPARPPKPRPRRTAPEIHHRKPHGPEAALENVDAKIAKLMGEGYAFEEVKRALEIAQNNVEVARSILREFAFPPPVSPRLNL
Assay: Binding affinity towards N-terminal biotinylated Avi-tagged human CBL-B (36 to 427 residues) measured by surface plasmon resonance assay
Property: Kd; scope: individual molecules

Before answering, review these 3 worked examples.
molecule=Cn1cnnc1CC1(c2cccc(NC(=O)c3cc(Cn4ccnn4)nc(C4CC4)n3)c2)COC1 experimental_result="< 100 nM"
molecule=CC1=CC(C(=O)Nc2cccc([C@H](C)Sc3nncn3C)c2)=NC(=O)C1 experimental_result="> 10000 nM"
molecule=C[C@H](Cc1nncn1C)c1cccc(N2Cc3c(cc(CN4CC(F)(F)C4)cc3C(F)(F)F)C2=O)c1 experimental_result="< 100 nM"

Look at this molecule and give its reported Kd. COc1cccc(C(=O)Nc2cccc(C(C)Sc3nncn3C)c2)c1 (stereo unspecified)
> 10000 nM

Look at this molecule and give its reported Kd. `Cc1cc(C(=O)Nc2cccc([C@@](C)(F)C(F)(F)c3nncn3C)c2)nc(C2CC2)n1`
< 100 nM

Look at this molecule and give its reported Kd. `C[C@H](Cc1nncn1C)c1cccc(NC(=O)c2cc(C3CC3)nc(C3CC3)n2)c1`
< 100 nM

* * *

Test: Induction of anti-CD3/CD28 antibodies-stimulated human T cell activation at 1 uM assessed fold increase in CD25 expression measured by ELISA assay
Format: functional, T cell line
READOUT: fold change (FC)

molecule=C[C@H](Sc1nncn1C)c1ccnc(NC(=O)c2cc(C3CC3)cc(C(F)(F)F)n2)c1 readout="fold change (FC)" experimental_result=<=1
molecule="Cn1cnnc1[C@H](F)C1(c2cccc(N3Cc4c(cc(CN5[C@H]6CC[C@H]5CC(F)C6)cc4C(F)(F)F)C3=O)c2)COC1 (stereo partly drawn)" readout="fold change (FC)" experimental_result=>=1.76
molecule=Cn1cnnc1CC1(c2cccc(N3Cc4c(cc(CN5[C@@H]6CC[C@H]5C[C@H](F)C6)cc4C(F)(F)F)C3=O)c2)COC1 readout="fold change (FC)" experimental_result=>=1.76

* * *

Assay: Induction of anti-CD3 antibodies-stimulated human T cell activation at 1 uM assessed fold increase in IL-2 secretion measured by ELISA assay; further: reference of the scale not given here
Type: functional, T cell line
READOUT: fold change (FC)

Before answering, review these 8 worked examples.
molecule=CCOc1cc(N2Cc3c(cc(CN4CC[C@H](F)C4)cc3C(F)(F)F)C2=O)cc(C2(Cc3nncn3C)COC2)c1 experimental_result=>=0.201
molecule=C[C@H](Sc1nncn1C)c1cccc(NC(=O)c2cc(C(F)(F)F)ccn2)c1 experimental_result=<=0.05
molecule="Cn1cnnc1CC1(c2cccc(N3Cc4c(cc(CN5CCC(C)(F)C5)cc4C(F)(F)F)C3=O)c2)COC1 (centres undefined)" experimental_result=>=0.201
molecule=Cc1[nH]ncc1-c1cc2c(c(C(F)(F)F)c1)CN(c1cccc([C@H](C)Cc3nncn3C)c1)C2=O experimental_result=0.151
molecule=Cn1cnnc1CC(C)(C)c1cccc(N2Cc3c(cccc3C(F)(F)F)C2=O)c1 experimental_result=>=0.201
molecule="Cn1cnnc1CC1(c2cccc(N3Cc4c(cc(C5CN6CCC5CC6)cc4C(F)(F)F)C3=O)c2)COC1 (centres undefined)" experimental_result=<=0.05
molecule=Cn1cnnc1[C@H](F)[C@](C)(F)c1cccc(N2Cc3c(cc(C4CC4)cc3C(F)(F)F)C2=O)c1 experimental_result=0.051
molecule=C[C@H](Sc1nncn1C)c1cccc(NC(=O)c2cc(C(C)(C)O)c(Cl)cn2)c1 experimental_result=<=0.05

From here, focus on the item given below.
Look at this molecule and give its reported fold change (FC). `Cn1cnnc1CC1(c2cccc(N3Cc4c(cc(CN5CC[C@@H](C#N)C5)cc4C(F)(F)F)C3=O)c2)COC1`
0.101
